Molecular target: Beta-3 Adrenergic Receptor (Homo sapiens (Human))
Sequence (P13945 whole entry, species assumed): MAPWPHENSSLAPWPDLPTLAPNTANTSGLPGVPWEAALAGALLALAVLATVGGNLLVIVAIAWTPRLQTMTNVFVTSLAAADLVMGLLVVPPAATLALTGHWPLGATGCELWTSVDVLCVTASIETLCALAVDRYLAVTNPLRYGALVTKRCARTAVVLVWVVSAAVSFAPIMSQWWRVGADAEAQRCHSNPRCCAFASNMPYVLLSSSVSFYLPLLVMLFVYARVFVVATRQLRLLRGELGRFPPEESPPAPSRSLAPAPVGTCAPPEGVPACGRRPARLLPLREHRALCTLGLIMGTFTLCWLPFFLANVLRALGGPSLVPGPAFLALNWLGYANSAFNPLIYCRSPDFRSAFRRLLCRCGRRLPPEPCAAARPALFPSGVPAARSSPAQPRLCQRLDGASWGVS
Experiment: HTRF cAMP antagonist assay (IC50 determination)
Conditions: CHO-K1 cells stably expressing recombinant receptor; antagonism of isoproterenol at EC90; cAMP readout
Protocol: HTRF cAMP assays were performed according to manufacturer's instructions (Cisbio, cAMP Dynamic 2 Assay Kit; #62AM4PEJ). CHO-K1 cells stably expressing recombinant receptor were harvested and suspended in warm PBS to make a 300,000 cells/mL stock. […] Compounds were dissolved and serially diluted (5-fold) in DMSO to generate a 10-point dose response stock. […] The EC90 for isoproterenol, a beta-adrenergic agonist, was determined in separate experiments using standard methods to measure agonist potencies. […]
pIC50: −log10 of the molar value.
Label YES when pIC50 is at or above 7; anything below gets NO.

Examples from the recorded data:
NCCc1ccc(-c2cccc(S(=O)(=O)N3CCC4(CC3)C[C@H](NC[C@H](O)COc3cccc(S(=O)(=O)C(F)(F)CO)c3)CO4)c2)cc1: YES
CS(=O)(=O)c1cccc(OC[C@@H](O)CNC2COC3(CCN(S(=O)(=O)c4ccc5c(c4)CCCO5)CC3)C2)c1 (stereo partly drawn): YES
CS(=O)(=O)c1cccc(OC[C@@H](O)CNC2COC3(CCN(S(=O)(=O)c4cccc(F)c4)CC3)C2)c1 (stereo partly drawn): YES
CC(C)CS(=O)(=O)c1cccc(OC[C@@H](O)CN[C@H]2COC3(CCN(S(=O)(=O)c4ccc5ncccc5c4)CC3)C2)c1: NO
CC(C)NCc1ccc(-c2cccc(S(=O)(=O)N3CCC4(CC3)CC(NC[C@H](O)COc3cccc(S(C)(=O)=O)c3)CO4)c2)cc1 (stereo partly drawn): YES

Threshold query (pIC50 >= 7) on CS(=O)(=O)c1cccc(OC[C@@H](O)CNC2COC3(CCN(S(=O)(=O)c4cccc(-c5cccnc5)c4)CC3)C2)c1 (stereo partly drawn)
YES
